src = PubChem BioAssay (NCI)

The entries below come with measured TGI values attached.
system: OVCAR-3 ovarian; assay: NCI tumour cell line growth inhibition, 48 h
*1 amine or outer side, *2 acyl side, *3 side chain or, on linkers, in order; H or OH if unused. Where a SMILES comes first, the peptide text is derived from it. Bridges are numbered along the chain shown (N, C = ends). Roman numbers before positions name the chains, in order. [ ]: non-standard residue; d: D form. Actinocin(9to1) = Cc1c2oc3c(C)ccc(C(=O)[*:1])c3nc-2c(C(=O)[*:2])c(N)c1=O; NMeV = CN[CH](C(=O)O)C(C)C; Sar = CNCC(=O)O

Solved cases below.
c1ccc(Nc2ncc(-c3ccccc3)o2)cc1 = > 25 µM
CCCCCCOc1ccc(/C=N/Nc2cc(C)nc3ccc(Cl)cc23)cc1 = 3.74 µM
CCn1cnc2c(=S)nc(N)[nH]c21 = > 100 µM
S=P1(Oc2ccccc2)NNP2(=NP(N3CC3)(N3CC3)=NP(N3CC3)(N3CC3)=N2)NN1 (stereo not given) = > 100 µM
CCOC(=O)C(=[N+]=[N-])C(=O)CN1C(=O)c2ccccc2C1=O = > 100 µM
CCOc1ccc(NC2=CC(=O)C(=O)c3ccccc32)cc1 = 8.21 µM
O=C(NC1CCCCC1)NS(=O)(=O)c1ccc(N2N=C3c4ccccc4CC3C2c2ccc(Cl)cc2)cc1 (stereo not given) = 42 µM
COc1cc2c(cc1OC)-c1cc(OC)c(OC)cc1C(CN(C)C)C2 (stereo not given) = > 10 µM

Challenge: Quick check: TGI of COc1ccc(NC(=S)c2ccc(CN3CCCCC3)s2)cc1 ?
Response given: > 100 µM

Challenge: Quick check: TGI of CCNC(=O)c1ccc(C)c(N=NN(C)C)c1 ?
Response given: > 100 µM

Challenge: Quick check: TGI of O=C1SC(SCc2ccccc2)=NC12CC2c1ccccc1 (stereo not given) ?
Response given: > 72.7 µM

Challenge: Quick check: TGI of COc1cc(-c2nc3sccn3c2-c2ccnc(NCCNS(=O)(=O)c3ccc(F)cc3)n2)ccc1F ?
Response given: > 100 µM

Challenge: Quick check: TGI of CCOC(=O)c1cc(-c2ccc(OC)cc2)c([N+](=O)[O-])n1C ?
Response given: > 10 µM

Challenge: Quick check: TGI of CC(=C(c1ccc(OCCN2CCCCC2)cc1)c1ccc(OCCN2CCCCC2)cc1)c1ccc(Cl)cc1 ?
Response given: 0.783 µM

Challenge: Quick check: TGI of COCCOCOC(CCCCO)c1cc(C)c(O[Si](C)(C)C(C)(C)C)c(C)c1 (stereo not given) ?
Response given: 19.2 µM

Challenge: Quick check: TGI of COc1ccc(C2=CC(C(C)=C(C(N)=O)C(N)=O)C=C(c3ccc(Br)cc3)C2)c(OC)c1 (stereo not given) ?
Response given: > 100 µM

Challenge: Quick check: TGI of CC1NC(=O)C(C)C(c2ccccc2)N(N=O)C1c1ccccc1 (stereo not given) ?
Response given: > 100 µM

Challenge: Quick check: TGI of COc1cc(-c2nn(-c3cccc(NC(=O)c4ccccc4)c3)cc2-c2ccncc2)ccc1Cl ?
Response given: 13.9 µM

Challenge: Quick check: TGI of Cc1c2oc3c(C)ccc(C(=O)NC4C(=O)NC(C(C)C)C(=O)N5CCCC5C(=O)N(C)CC(=O)N(C)C(C(C)C)C(=O)OC4C)c3nc-2c(C(=O)NC2C(=O)NC(C(C)C)C(=O)N3CCCC3C(=O)N(C)CC(=O)N(C)C(C(C)C)C(=O)OC2C)c(N)c1=O (stereo not given) (I: TVP[Sar][NMeV] / II: TVP[Sar][NMeV]; ester I:1-I:C, II:1-II:C; linker I:N-II:N via Actinocin(9to1); configuration not given here) ?
Response given: 0.00907 µM
